- Tested on: 3D7
- assay_remarks: qHTS profiling for inhibitors of Plasmodium falciparum proliferation (AID 504749); note: nearly all actives have a fitted effect of over 60% in size
- protocol_conditions: P. falciparum in erythrocytes, SYBR Green DNA, 72 h; series mostly up to 28.7 µM
- Description: NIH National Institute of Allergy and Infectious Diseases [NIAID] NIH Chemical Genomics Center [NCGC] […] Because mature erythrocytes lack DNA, only Plasmodium-derived DNA is detected. NCGC Assay Protocol Summary: The SYBR Green viability assay was adapted from a method described previously (Plouffe et al., 2008). […] The following morning, fluorescence intensity at 485(14) nm excitation and 535(25) nm emission wavelengths was measured on an EnVision (Perkin Elmer) plate reader. […]
Records with an inconclusive call do not appear. Activity calls are given as the source filed them. Calls come from the whole dose curve; as a rule, active = well fitted inhibition curve with a large enough effect; inconclusive = small, poorly fitted or top-dose-only effect; inactive = flat fitted curve, though single readings scatter.
Outcomes: active, inactive

molecule=Cc1c[nH]c2ccccc12 group_label=inactive
molecule=OC(C#CCN1CCCC1)(c1ccccc1)c1ccccc1 group_label=inactive
molecule=CN1CCN(c2cc3c(cc2F)c(=O)c(C(=O)O)cn3-c2ccc(F)cc2)CC1 group_label=inactive
molecule=CC(=O)NC(=O)c1ccccc1O group_label=inactive
molecule="CCCCCCCCNC(C)C(O)c1ccc(SC(C)C)cc1 (stereo unspecified)" group_label=active
molecule="Clc1cccc(C(c2ccc3nc[nH]c3c2)n2ccnc2)c1 (stereo unspecified)" group_label=active
molecule=CCOC(=O)Nc1ccc2c(c1)N(C(=O)CCN1CCOCC1)c1ccccc1S2 group_label=inactive
molecule=CN1CCN(C2=Nc3cc(F)ccc3Cc3ccccc32)CC1 group_label=inactive
molecule=CC(C)=CCOc1ccc(/C=C/C(=O)c2ccc(OCC=C(C)C)cc2OCC(=O)O)cc1 group_label=inactive
molecule=CC(=O)Nc1ccc(CC(=O)O)cc1 group_label=inactive
molecule=c1ccc(CC2=NCCN2)cc1 group_label=inactive
molecule=CO[C@]12C[C@@H](COC(=O)c3cncc(Br)c3)CN(C)[C@@H]1Cc1cn(C)c3cccc2c13 group_label=inactive
molecule=CCOCCn1c(N2CCCN(C)CC2)nc2ccccc21 group_label=inactive
molecule=CC(C)(C)NC[C@H](O)COc1nsnc1N1CCOCC1 group_label=active
molecule=CCCCNc1ccc(C(=O)OCCOCCOCCOCCOCCOCCOCCOCCOCCOC)cc1 group_label=inactive
molecule=NC(N)=NN=C(/C=C/c1ccc([N+](=O)[O-])o1)/C=C/c1ccc([N+](=O)[O-])o1 group_label=active
molecule=OCCOCCN1CCN(C2=Nc3ccccc3Sc3ccccc32)CC1 group_label=inactive
molecule=CCNC(=O)/C=C/c1cccc(Br)c1 group_label=inactive
molecule=O=C(O)P(=O)(O)O group_label=inactive
molecule=CCOc1ccccc1C(N)=O group_label=inactive
molecule=O=C(Nc1ccc([N+](=O)[O-])cc1)Nc1ccc([N+](=O)[O-])cc1 group_label=active
molecule=CCN(CC)CCOc1ccccc1C(=O)CCc1ccccc1 group_label=inactive
molecule=CC(C)Cc1ccc(CC(=O)O)cc1 group_label=inactive
molecule=CCCCCCCCCCCCCCCCO group_label=inactive
molecule=O=C(O)CCNC(=O)c1ccccc1 group_label=inactive
molecule=C/C=C/C=N/NC(=O)c1ccncc1 group_label=inactive

----------
- Test system: TAB109
- assay_remarks: qHTS profiling for inhibitors of Plasmodium falciparum proliferation (AID 504749); note: nearly all actives have a fitted effect of over 60% in size
- protocol_conditions: P. falciparum in erythrocytes, SYBR Green DNA, 72 h; series mostly up to 28.7 µM
Results filed as inconclusive are left out. Active and inactive are the calls of the source. Calls follow the shape of the dose curve; as a rule, active = well fitted inhibition curve with a large enough effect; inconclusive = small, poorly fitted or top-dose-only effect; inactive = flat fitted curve, though single readings scatter.
Outcomes: y = active, n = inactive

compound=CC(=O)N[C@@H](CCC(=O)O)C(=O)O target_or_test_system=TAB109 group_label=n
compound=CC(=O)Nc1ncc([N+](=O)[O-])s1 target_or_test_system=TAB109 group_label=n
compound=CC(=O)Nc1ccc(CC(=O)O)cc1 target_or_test_system=TAB109 group_label=n
compound=CCN(CC)CCNC(=O)COc1ccc(OC)cc1 target_or_test_system=TAB109 group_label=n
compound=CC(C)Cc1ccc(CC(=O)O)cc1 target_or_test_system=TAB109 group_label=n
compound=Cl/C(=C\n1cncn1)c1ccc(Cl)cc1Cl target_or_test_system=TAB109 group_label=n
compound=FC(F)(F)C(F)(F)C(F)(F)C(F)(F)C(F)(F)C(F)(F)C(F)(F)C(F)(F)Br target_or_test_system=TAB109 group_label=n
compound=CCCN(CCC)S(=O)(=O)c1ccc(C(=O)O)cc1 target_or_test_system=TAB109 group_label=n
compound=CC(=O)Nc1ccc(OC(=O)c2ccccc2OC(C)=O)cc1 target_or_test_system=TAB109 group_label=n
compound=COc1ccc(/C=N/NC(=O)c2ccncc2)cc1OC target_or_test_system=TAB109 group_label=n
compound=COc1ccc(CCN(C)CCCN2CCc3cc(OC)c(OC)cc3CC2=O)cc1OC target_or_test_system=TAB109 group_label=n
compound=NCCNc1cccc2ccccc12 target_or_test_system=TAB109 group_label=n
compound=COc1ccc(C(=O)c2ccccc2O)c(O)c1 target_or_test_system=TAB109 group_label=n
compound=CCc1oc2ccccc2c1C(=O)c1cc(I)c(O)c(I)c1 target_or_test_system=TAB109 group_label=n
compound=CCCCCN=C(N)N/N=C/c1c[nH]c2ccc(OC)cc12 target_or_test_system=TAB109 group_label=y
compound=COc1cc(C)nc(-n2nc(C)cc2OC)n1 target_or_test_system=TAB109 group_label=n
compound=NC(=O)n1c(O)c(C(=O)c2cccs2)c2cc(Cl)ccc21 target_or_test_system=TAB109 group_label=n
compound=CCCCCCCCCCCCCC[N+](C)(C)Cc1ccccc1 target_or_test_system=TAB109 group_label=y
compound=COc1cc(C(=O)NCc2ccc(OCCN(C)C)cc2)cc(OC)c1OC target_or_test_system=TAB109 group_label=n
compound=CC(C)(C)NC[C@H](O)COc1nsnc1N1CCOCC1 target_or_test_system=TAB109 group_label=y
compound=CC(=O)NCCCCCC(=O)O target_or_test_system=TAB109 group_label=n
compound="CCc1ccc(C(=O)C(C)CN2CCCCC2)cc1 (centres undefined)" target_or_test_system=TAB109 group_label=n
compound=CC[C@H](c1ccc(O)cc1)[C@@H](CC)c1ccc(O)cc1 target_or_test_system=TAB109 group_label=n
compound="O=C1C(=O)c2ccccc2C(O)=C1C1CCC(c2ccc(Cl)cc2)CC1 (centres undefined)" target_or_test_system=TAB109 group_label=y
compound=CCOc1ccccc1C(N)=O target_or_test_system=TAB109 group_label=n
compound=c1ccc(CC2=NCCN2)cc1 target_or_test_system=TAB109 group_label=n
compound=CC(=O)Nc1ccc(S(=O)(=O)Nc2ccc([N+](=O)[O-])cc2)cc1 target_or_test_system=TAB109 group_label=n
compound=CN1CCc2cccc3c2[C@H]1Cc1ccc(O)c(O)c1-3 target_or_test_system=TAB109 group_label=y
compound=C=C[C@@]1(C)CC(=O)[C@]2(O)[C@@]3(C)[C@@H](O)CCC(C)(C)[C@@H]3[C@H](O)[C@H](OC(C)=O)[C@@]2(C)O1 target_or_test_system=TAB109 group_label=n
compound=O=C1C(O)=C(O)C(=O)C(O)=C1O target_or_test_system=TAB109 group_label=n
compound="CC1(COc2ccc(CC3SC(=O)NC3=O)cc2)CCCCC1 (centres undefined)" target_or_test_system=TAB109 group_label=n
compound=NC(N)=NN=C(/C=C/c1ccc([N+](=O)[O-])o1)/C=C/c1ccc([N+](=O)[O-])o1 target_or_test_system=TAB109 group_label=y
compound=CCNC(=O)NCc1cccc(Cl)c1 target_or_test_system=TAB109 group_label=n
compound=C/C=C/c1ccc(O)c(OC)c1 target_or_test_system=TAB109 group_label=n

Source listed as PubChem BioAssay (NCATS).
